From: PubChem BioAssay (NCI)

- TEST_DETAILS: NCI Yeast Anticancer Drug Screen. Data for the bub3 strain (AID 167)
- ASSAY_CONDITIONS: S. cerevisiae bub3 mutant strain, at 50.0 µM, active compounds read high
About 79,000 compounds went through this panel and 15% of them were active in at least one assay; those are over-represented in the sample as a whole.
READOUT_TYPE: growth inhibition (%)

1. CCCCCCCCCCCCS(=O)(=O)O (tested in a mixture with another compound) : -22.5
2. CCOC(=O)c1nc2c([nH]1)c(=O)n(C)c(=O)n2C : 9.8
3. CC1CC(=O)C2CC(Cl)CCC2(C)C1C (stereo not given) : -27.4
4. CN(CC(=O)O)c1ccc([N+](=O)[O-])cc1[N+](=O)[O-] : 26.4
5. O=C(/C(=C(/[O-])C(F)(F)F)[n+]1cccc2ccccc21)C(F)(F)F : -1.4
